Sourced from patent US10669272B2

log10 IC50 by entry:
molecular target: human DGKζ (Homo sapiens); construct: TVMV protease cleavage site (C); Hexa-His (C); made in house; host or cells: Sf9 insect cells (baculovirus, Bac-to-Bac); experiment: DGKζ LIPGLO assay (extruded liposome substrate), in vitro DGK inhibition; type: biochemical; conditions: liposome (LIPGLO) assay; read-out: DGKz LIPGLO IC50
Sequence (Q13574 with tags, fused parts or gaps isoform Q13574-4): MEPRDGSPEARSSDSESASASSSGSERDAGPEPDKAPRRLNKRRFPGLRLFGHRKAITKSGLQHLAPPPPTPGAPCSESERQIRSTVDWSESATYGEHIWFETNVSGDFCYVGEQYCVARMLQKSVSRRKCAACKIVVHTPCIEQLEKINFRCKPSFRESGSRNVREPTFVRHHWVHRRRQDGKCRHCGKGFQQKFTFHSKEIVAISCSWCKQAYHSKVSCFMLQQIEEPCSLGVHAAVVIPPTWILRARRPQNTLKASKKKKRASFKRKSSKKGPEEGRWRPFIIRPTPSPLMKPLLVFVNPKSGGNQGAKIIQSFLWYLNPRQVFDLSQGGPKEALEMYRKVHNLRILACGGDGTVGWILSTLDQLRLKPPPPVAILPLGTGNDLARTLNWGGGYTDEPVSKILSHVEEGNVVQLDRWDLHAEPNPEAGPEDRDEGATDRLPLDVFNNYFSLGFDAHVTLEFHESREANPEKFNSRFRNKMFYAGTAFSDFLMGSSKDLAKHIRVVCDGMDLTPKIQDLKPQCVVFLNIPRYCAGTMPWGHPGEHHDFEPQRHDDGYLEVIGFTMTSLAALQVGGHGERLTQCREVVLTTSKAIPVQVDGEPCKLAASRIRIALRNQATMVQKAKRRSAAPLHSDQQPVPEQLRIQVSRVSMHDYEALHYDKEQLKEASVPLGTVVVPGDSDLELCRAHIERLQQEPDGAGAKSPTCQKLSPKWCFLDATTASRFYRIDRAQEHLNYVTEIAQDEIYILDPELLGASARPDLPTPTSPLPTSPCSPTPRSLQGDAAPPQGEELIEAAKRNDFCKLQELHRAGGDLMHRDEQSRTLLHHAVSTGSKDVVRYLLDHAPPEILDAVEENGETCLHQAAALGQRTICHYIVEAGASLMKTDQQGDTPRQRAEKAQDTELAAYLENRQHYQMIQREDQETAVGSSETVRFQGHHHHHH
Measured parameter: log10 IC50 (log10 of the value in µM)

C[C@@H]1CN(c2cc(=O)n(C)c3ccc(C#N)nc23)[C@@H](C)CN1C(c1ccc(Cl)cc1)c1cccc(F)n1 (single isomer, unassigned) [Example 195]
0.04
C[C@@H]1CN(c2cc(=O)n(C)c3ccc(C#N)nc23)[C@@H](C)CN1Cc1ccc(C#N)cc1F
-0.16
CC(c1ccc(F)cn1)N1C[C@H](C)N(c2cc(=O)n(C)c3ccc(C#N)nc23)C[C@H]1C (single isomer, unassigned) [Example 641]
1.18
C[C@@H]1CN(c2cc(=O)n(C)c3ccc(C#N)nc23)[C@@H](C)CN1C(c1ccc(C#N)cc1)c1ccc(F)cn1 (stereo partly drawn) [Example 464]
0.23
CC(C)[C@H]1CN(c2cc(=O)n(C)c3ccc(C#N)nc23)CCN1C(c1ccc(F)cc1)c1ccc(F)cc1
0.71
CC(C)OC(=O)C1CN(c2c(C#N)c(=O)n(C)c3ccc(C#N)nc23)CCN1C(c1ccc(F)cc1)c1ccc(F)cc1 (single isomer, unassigned)
2.38

----------
system: Human venous whole blood; experiment: Human whole blood IFN-γ assay; type: cell-based; conditions: Homo sapiens, 24 h, human whole blood, anti-CD3 plus anti-CD28, 24 hours; 3 μM reference compound = 100% activation; read-out: INFg Whole Blood Normalized Agonist EC50;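 further: blood from healthy donors exposed to compound for 1 h before stimulation with anti-CD3 and anti-CD28 at 1 µg/mL each, IFN-γ quantified in supernatant by AlphaLISA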
pEC50: −log10 of the molar value.
Use 6 as the dividing line for pEC50, with the line itself on the True side and lower values as False.

C[C@@H]1CN(c2cc(=O)n(C)c3ccc(C#N)nc23)[C@@H](C)CN1C(c1ccc(F)cc1)c1cc(C2CC2)on1 (single isomer, unassigned) [Example 729]
False
Cc1cc(CN2CCN(c3c(C#N)c(=O)n(C)c4ccc(C#N)nc34)C[C@H]2C)ccc1F
False
Cc1cccc(C(c2ccc(F)cc2)N2C[C@H](C)N(c3c(C#N)c(=O)n(C)c4ccc(C#N)nc34)C[C@H]2C)n1 (stereo partly drawn)
False
C[C@@H]1CN(c2c(C#N)c(=O)n(C)c3ccc(C#N)nc23)CCN1C(c1ccc(F)cc1)c1ccc(F)cc1F (single isomer, unassigned) [Example 947]
True
C[C@@H]1CN(c2c(C#N)c(=O)n(C)c3ccc(C#N)nc23)CCN1C(c1ccc(Cl)cc1)c1ccc2c(c1)OC(F)(F)O2 (single isomer, unassigned)
False
CC(c1ccccn1)N1CCN(c2c(C#N)c(=O)n(C)c3ccc(C#N)nc23)C[C@H]1C (single isomer, unassigned)
False
Cc1ccc(F)c(CN2CCN(c3c(C#N)c(=O)n(C)c4ccc(C#N)nc34)C[C@H]2C)c1
False
C[C@@H]1CN(c2cc(=O)n(C)c3ccc(C#N)nc23)[C@@H](C)CN1C(c1ccc(F)cc1)c1nc(C(C)(C)C)co1 (single isomer, unassigned)
True
CCc1ccccc1C(c1ccc(F)cc1)N1C[C@H](C)N(c2c(C#N)c(=O)n(C)c3ccc(C#N)nc23)C[C@H]1C (single isomer, unassigned)
False
